Could you please report measured OD450 for the items listed next?
Test target: T1, murine CD22 protein (ACROBiosystems, SI2-M52Ha) (murine, UniProt P35329 22-708)
T1 construct: extracellular domain; also called murine CD22-ECD; murine CD22-ECD-His
T1 sequence (looked up): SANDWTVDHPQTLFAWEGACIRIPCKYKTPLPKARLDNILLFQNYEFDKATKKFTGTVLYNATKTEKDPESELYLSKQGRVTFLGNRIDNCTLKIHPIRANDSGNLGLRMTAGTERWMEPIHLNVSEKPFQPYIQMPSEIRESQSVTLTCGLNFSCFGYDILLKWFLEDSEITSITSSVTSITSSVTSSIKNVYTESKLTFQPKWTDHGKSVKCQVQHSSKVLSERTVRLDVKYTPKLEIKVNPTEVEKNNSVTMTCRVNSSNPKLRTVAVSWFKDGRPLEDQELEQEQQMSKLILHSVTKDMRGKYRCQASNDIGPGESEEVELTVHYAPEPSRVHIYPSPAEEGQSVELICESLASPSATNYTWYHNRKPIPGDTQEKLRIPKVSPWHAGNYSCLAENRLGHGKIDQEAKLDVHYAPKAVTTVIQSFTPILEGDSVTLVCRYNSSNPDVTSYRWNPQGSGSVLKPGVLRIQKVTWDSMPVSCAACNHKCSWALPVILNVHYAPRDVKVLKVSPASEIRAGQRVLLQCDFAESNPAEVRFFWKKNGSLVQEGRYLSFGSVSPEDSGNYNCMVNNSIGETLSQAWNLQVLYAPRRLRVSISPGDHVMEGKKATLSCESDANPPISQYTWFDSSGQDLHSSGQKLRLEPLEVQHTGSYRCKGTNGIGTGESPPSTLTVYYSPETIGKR
Test details: ELISA, coated murine CD22, 0.00001 nM Ab
One number for each entry, in OD450.

Below are worked cases with known answers.
>>> value_reported("F1.257.3 human-murine chimeric antibody (antibody, human IgG1, kappa, V domains shown, Chimeric, human IgG1 / kappa; VL tied by name) VH: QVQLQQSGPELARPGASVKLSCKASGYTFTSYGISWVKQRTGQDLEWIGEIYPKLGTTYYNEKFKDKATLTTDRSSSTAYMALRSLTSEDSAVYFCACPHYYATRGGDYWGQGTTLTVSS VL: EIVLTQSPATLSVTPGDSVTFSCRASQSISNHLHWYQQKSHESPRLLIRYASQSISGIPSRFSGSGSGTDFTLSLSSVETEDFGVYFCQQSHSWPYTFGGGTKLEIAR")
0.06
>>> value_reported("F2.343.16 human-murine chimeric antibody (antibody, human IgG1, lambda, V domains shown, Chimeric, human IgG1 / lambda; VL tied by name) VH: QVQLKQSGPGLVQPSQSLSITCTVSGFSLTGYGVQWVRQSPGKGLEWLGVIWGGGGTDYNAAFISRLNIIKDNSKSQVFFKMNSLQADDTAIYYCARYSKYGHFDVWGTGTAVTVSS VL: QAVVTQESALTTSPGETVTLTCRSSTGAVTTSNYANWVQEKPDHLFTGLIGGTYNRVPGVPARFSGSLIGDKAALTITGAQTEDEAIYFCALWYSNHFWVFGGGTKLTVLG")
0.06
>>> value_reported("HA22-hIgG1 (antibody, V domains shown) VH: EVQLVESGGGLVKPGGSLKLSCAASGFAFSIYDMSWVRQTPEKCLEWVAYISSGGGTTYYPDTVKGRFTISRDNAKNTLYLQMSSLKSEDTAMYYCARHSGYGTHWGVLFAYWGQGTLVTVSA VL: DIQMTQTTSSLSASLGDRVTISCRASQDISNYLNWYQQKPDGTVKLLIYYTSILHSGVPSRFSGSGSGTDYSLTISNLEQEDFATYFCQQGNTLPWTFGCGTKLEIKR")
0.06
>>> value_reported("F2.121.9 human-murine chimeric antibody (antibody, human IgG1, lambda, V domains shown, Chimeric, human IgG1 / lambda) VH: EVQLVESGGGLVKPGGSLKLSCAASGFTFSDYVMSWIRQTPEKRLEWVATISDAGSYTFYPDNLKGRFTISRDNAKNNLYLQMNHLTSEDTAFYYCAIIYFGNYGGYWGQGTLVTVSV VL: QAVVTQESALTTSPGGTVVLTCRSNTGAVTTSNYANWVQEKPDHLFTGLIGGTSNRAPGVPVRFSGSLIGDKAALTITGAQTEDDAMYFCALWYSTHWVFGGGTKLTVLG")
0.06
>>> value_reported("F1.60.9 human-murine chimeric antibody (antibody, human IgG1, kappa, V domains shown, Chimeric, human IgG1 / kappa) VH: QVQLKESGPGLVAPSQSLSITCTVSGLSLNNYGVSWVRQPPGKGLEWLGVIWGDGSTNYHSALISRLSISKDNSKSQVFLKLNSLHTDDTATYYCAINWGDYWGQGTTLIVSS VL: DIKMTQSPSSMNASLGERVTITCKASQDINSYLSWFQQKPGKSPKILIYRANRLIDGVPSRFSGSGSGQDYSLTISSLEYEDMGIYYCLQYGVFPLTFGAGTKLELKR")
0.06
>>> value_reported("F2.70.2 human-murine chimeric antibody (antibody, human IgG1, lambda, V domains shown, Chimeric, human IgG1 / lambda) VH: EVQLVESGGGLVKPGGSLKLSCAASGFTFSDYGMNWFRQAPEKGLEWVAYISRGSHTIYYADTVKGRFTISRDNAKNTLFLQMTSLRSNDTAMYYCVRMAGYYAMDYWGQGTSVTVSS VL: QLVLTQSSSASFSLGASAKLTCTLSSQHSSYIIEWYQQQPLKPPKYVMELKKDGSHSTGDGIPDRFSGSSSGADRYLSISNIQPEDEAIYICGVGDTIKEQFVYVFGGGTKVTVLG")
0.06

# return OD450 for each item in the list
1. F1.172.13 human-murine chimeric antibody (antibody, human IgG1, kappa, V domains shown, Chimeric, human IgG1 / kappa) VH: QVTLKESGPGILQSSQTLSLTCSFSGFSLSTSGMGVSWIRQPSGKGLEWLAHIYWDDDKRYNPSLKSRLTISKDTSRNQVFLKITSVDTADTATYYCARAPPPNWDEYYFDYWGQGTTLTVSS VL: DIQMTQSPASLSASVGETVTITCRASGNIHNSLAWYQQKQGKSPQLLVHNAKTLADGVPSRFSGSGSGTQYSLKINSLQPEDFGSYYCQHFWSTPPFGGGTKLEIKR
2. F1.62.10 human-murine chimeric antibody (antibody, human IgG1, kappa, V domains shown, Chimeric, human IgG1 / kappa) VH: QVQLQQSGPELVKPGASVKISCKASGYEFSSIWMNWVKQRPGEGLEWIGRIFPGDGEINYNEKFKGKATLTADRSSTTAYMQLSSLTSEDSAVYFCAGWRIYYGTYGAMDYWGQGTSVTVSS VL: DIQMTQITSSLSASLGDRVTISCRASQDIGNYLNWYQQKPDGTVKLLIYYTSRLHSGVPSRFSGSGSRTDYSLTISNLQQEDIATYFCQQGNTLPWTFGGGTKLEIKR
3. F2.42.9 human-murine chimeric antibody (antibody, human IgG1, lambda, V domains shown, Chimeric, human IgG1 / lambda; VL tied by name) VH: QVTLKESGPGILQPSQTLSLTCSFSGFSLSTFDRGVGWIRQPSGKGLEWLAHIWWNDKKFYNPVLKSRLTISKDTSKNQVFLTIANVDSADTATYSCARIVWDKYYFDYWGQGIPLTVSS VL: QLVLTQSSSASFSLGASAKLTCTLSSQHSAYTIEWYQQQPLKPPKFVMDLKKDGSHSTGDGIPARFSGSSSGADRYLTISNIQPEDEAIYICGVGDTIKEQYVFGGGTKVTVLG
4. F1.245.2 human-murine chimeric antibody (antibody, human IgG1, kappa, V domains shown, Chimeric, human IgG1 / kappa) VH: EVQLQQSGAELVKPGASVKLSCTGSGFNIKDYYIHWVKQRTEQGLEWMGRIDPEDGETEYAPKFQDEATITSDTSSNTAYLQLSSLTYEDTAVYYCAREAAGYFYRGSSYGYFDVWGTGTTVTVSS VL: DFQMTQTTSFLSASLGDRVTISCSASQDISNYLNWYQQKPDGTVKLLIYYTSSLHSGVPSRFSGSGSGTDYSLTISNLEPEDIATYYCQQYSMLPYTFGGGTKLEMER

1. 0.06
2. 0.07
3. 0.08
4. 0.06
